protocolDetails: NCI Yeast Anticancer Drug Screen. Data for the mec2-1 strain (AID 157)
measurementContext: S. cerevisiae mec2-1 strain, at 50.0 µM, stronger effect = higher value
Compounds without any hit were thinned out: in the full panel of roughly 79,000, 15% have a hit.

compound	unitSymbol	growth inhibition
CCOC(=O)C(Br)C(Br)c1ccccc1Cl (stereo not given)	%	99.8
O=C(O)CCCC1CCCc2c1ccc1ccccc21 (stereo not given)	%	83.6
CCOC1Oc2ccccc2-c2nc(N)ncc21 (stereo not given)	%	85.4
COc1cc(/C=N/Nc2nnc3c4ccccc4c4ncccc4c3n2)cc(OC)c1OC	%	22.1
O=C(NNc1ccccc1)c1ccc(Cl)c(Cl)c1	%	40.9
CCCCC/C(=C(\C#N)C(=O)OCC)c1ccccc1	%	28.4
CC(O)=NC(Cc1ccc2ccccc2c1)C(O)=NC(Cc1ccc(Cl)cc1)C(O)=NC(Cc1c[nH]c2ccccc12)C(O)=NC(CO)C(O)=NC(Cc1ccc(O)cc1)C(O)=NC(CCCN=C(N)N)C(O)=NC(CC(C)C)C(O)=NC(CCCN=C(N)N)C(=O)N1CCCC1C(O)=NC(C)C(=N)O (stereo not given)	%	1.1
COC(=O)NC1C(C)OC(OC2C/C=C(/C)C3C=CC4C(OC5CC(OC6CC(O)C(OC7CC(O)C(OC)C(C)O7)C(C)O6)C(O)C(C)O5)C(C)CC(C)C4C3(C)/C(O)=C3\C(=O)OC4(CC(C)C(CO)=CC4/C=C\2C)C3=O)CC1(C)[N+](=O)[O-] (stereo not given)	%	-7.4
OC1(c2ccccc2)CCCc2ccc(Cl)cc21 (stereo not given)	%	50.2
CC(=O)Nc1ccc2c(c1)Cc1cc(N=C3C=CC(=O)O3)ccc1-2	%	15.8
O=[N+]([O-])c1cc(Cl)cnc1Br	%	76.7
CC1=C(SCc2ccccc2)C(=O)c2ccccc2C1=O	%	51.1
Cc1nc2ccccc2nc1NNc1ccccc1	%	41.6
CC(=O)OCC(C)Cc1cc2c(cc1Br)OCO2 (stereo not given)	%	3.8
C[C@@](O)(/C=C/[C@H]1CC=CC(=O)O1)[C@@H](C[C@@H](O)\C=C/C=C\C=C\CO)OP(=O)(O)O	%	50.6
CCc1c(Cl)c(C)cc(O)c1Cl	%	84.7
Nc1cc(N)c(N=Nc2cccc3c(S(=O)(=O)O)cccc23)cc1N=Nc1cc([N+](=O)[O-])ccc1O	%	4.9
N#CC(=Nc1ccccc1F)Nc1ccccc1F	%	-2.55
COc1cc([C@@H]2c3cc4c(cc3[C@H](OC3OC5COC(C(C)C)OC5C(O)C3O)C3COC(=O)[C@@H]32)OCO4)cc(OC)c1O (stereo not given in full)	%	22.4
CCc1ccc2c(c1)N(CC(C)CN(C)C)c1ccccc1S2 (stereo not given)	%	-12.1

----------
Reported growth inhibition values are given for each entry in this list.
protocolDetails: NCI Yeast Anticancer Drug Screen. Data for the rad50EPP+ strain (AID 151);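 note: 0% = growth of vehicle-treated control cultures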
measurementContext: S. cerevisiae rad50 mutant strain, at 1.2 µM, stronger effect = higher value
The panel holds about 79,000 compounds, 15% with a hit somewhere; the sample as a whole holds those more often.
valueType: growth inhibition (%)

>>> print(df.to_string())
                                   compound  unitsymbol  readoutvalue
0  CCCCCCC(O)CNCc1ccnc2ccc(OC)cc12 (stereo unspecified)           %             1
1      O=C(O)c1cc2ccc(Cl)cc2c(O)c1C1=CCCCC1           %             8
2         Oc1[nH]c2ccccc2c1N=NC(=S)N1CCCCC1           %             6
3              CN(CCN(C)Cc1ccccc1)Cc1ccccc1           %           -13
4     Cc1ccc(NCCNCCO)c2c(=O)c3cc(O)ccc3sc12           %            12
5  C[C@]12CC[C@H](O)CC1=CC[C@@H]1C2CC[C@]2(C)C(=O)NC(=O)CC12 (stereo partly specified)           %           -33

----------
protocolDetails: NCI Yeast Anticancer Drug Screen. Data for the sgs1 mgt1 strain (AID 161);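 note: 0% = growth of cultures given vehicle only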
measurementContext: S. cerevisiae sgs1 mgt1 strain, at 50.0 µM, stronger effect = higher value
This is part of a sample that, as a whole, favours compounds with a hit. Of some 79,000 tested, about 15% had one in any assay.
Entries and their growth inhibition
valueType: growth inhibition (%)

>>> print(df.to_string())
                                    compound  unitsymbol  readoutvalue
 0             Brc1ccccc1-c1ncc(-c2ccccc2)o1           %          71.4
 1            Nc1ccc2c(c1)C(=O)c1ccc(F)cc1-2           %          9.55
 2  C=C1CC(CCCl)(c2ccccc2)OC1=O (stereo not given)           %          93.5
 3  CC[n+]1oc(C(=O)c2ccc(Cl)cc2)c(-c2ccccc2)c1-c1ccccc1.[Cl][Fe]([Cl])([Cl])[Cl]           %          89.3
 4                COc1cc(O)c(O)c(C(C)(C)C)c1           %          63.8
 5  CSc1nc(C)c(CCOC(C)=O)c(N=P(c2ccccc2)(c2ccccc2)c2ccccc2)n1           %          96.5
 6                    CCc1cc(O)c(Cl)c(C)c1Cl           %          45.5
 7           CN(C)/C=C/c1nnc([N+](=O)[O-])s1           %            94
 8               CCN(CC)CCN(C)CCc1ccc(Br)cc1           %          68.4
 9  CN(C)CCNC(=O)c1cccc2cc([N+](=O)[O-])ccc12           %          84.3
10  CN(C)CCCCN1c2ccccc2Sc2ccc(N=[N+]=[N-])cc21           %          90.5
11  C[C@]12CC[C@H](O)CC1=CC[C@@H]1C2CC[C@]2(C)C(=O)NC(=O)CC12 (stereo not given in full)           %          91.8
12              COc1c(O)c(C=O)c(Br)c(C=O)c1O           %            99
13  Oc1ccc(-c2nc(-c3ccc(F)cc3)c(-c3ccc4ccccc4n3)[nH]2)cc1           %          92.2
14  COc1cc2ccnc(-c3c4ccccc4c(N)c4c(OC)c(OC)ccc34)c2cc1OC           %         -13.9

----------
protocolDetails: NCI Yeast Anticancer Drug Screen. Data for the rad18 strain (AID 177)
measurementContext: S. cerevisiae rad18 mutant growth inhibition; at 11.0 µM
About 79,000 compounds went through this panel and 15% of them were active in at least one assay; those are over-represented in the sample as a whole. Activity calls are given as the source filed them. Rule as the data show it: active = growth inhibition above about 70%; inactive = the rest.
Outcome codes: label 1 (active), label 0 (inactive)

In [3]: df
Out[3]:
                                    molecule      cat
 0       Nc1n[n+]([O-])c2ccc(Cl)cc2[n+]1[O-]  label 1
 1  CCc1nc2ccc(NCCN(C)C)c3c(=O)c4ccccc4n1c23  label 0
 2  CCN(CC)Cc1cc(Nc2c3ccccc3nc3c2[nH]c2ccccc23)cc(CN(CC)CC)c1O  label 0
 3  CC(=O)Nc1ccc2c(c1)Cc1cc(N=C3C=CC(=O)O3)ccc1-2  label 1
 4      CCC(C)(C)c1ccc(Oc2cccc(C(=O)O)c2)cc1  label 0
 5  O=C(CC(C(=O)O)N1CCOCC1)c1ccccc1 (configuration not stated)  label 0
 6  Cc1cc(N(CCOS(C)(=O)=O)CCOS(C)(=O)=O)ccc1C=Nc1ccc(-c2nc(Cc3ccccc3)sc2C)cc1  label 1
 7  O=C1C(Br)=C(c2ccccc2)O/C1=C/C(=O)c1ccc(Br)cc1  label 0
 8                  Cc1sc2ccc3ccccc3c2[n+]1C  label 0
 9  Cc1cc(O)c(C(C)C)cc1C1(c2cc(C(C)C)c(O)cc2C)OC(=O)c2ccccc21  label 0
10           CC(=O)Nc1ccc2c(c1)-c1ccccc1C2=O  label 0
11           CCCCCCCCCCCCCCCCCC(=O)NCCCN(C)C  label 0

----------
protocolDetails: NCI Yeast Anticancer Drug Screen. Data for the mec2-1 strain (AID 157)
measurementContext: S. cerevisiae mec2-1 strain, at 3.7 µM, stronger effect = higher value
This is part of a sample that, as a whole, favours compounds with a hit. Of some 79,000 tested, about 15% had one in any assay.
valueType: growth inhibition (%)

>>> df
                                    compound          valuetype  readoutvalue
 0                c1ccc(CCN2CCc3ccccc3C2)cc1  growth inhibition             1
 1                       CCCCCCCCCCCC1=NCCO1  growth inhibition            -4
 2  COc1cc2ccnc(-c3c4ccccc4c(N)c4c(OC)c(OC)ccc34)c2cc1OC  growth inhibition             2
 3  Cc1ccc(NC(c2ccccc2)c2ccc3cccnc3c2O)cc1 (stereo unspecified)  growth inhibition             2
 4             COc1cc(CSc2ccc(O)cc2)cc(O)c1O  growth inhibition            -1
 5  Cc1ccc2nc(-c3cccc([N+](=O)[O-])c3)oc(=O)c2c1  growth inhibition           -57
 6           CCCC/C=C/C(C)(C(=O)OCC)C(=O)OCC  growth inhibition            -4
 7                     Cc1ccc(Sc2ccccc2N)cc1  growth inhibition           -18
 8  CC(=O)Nc1ccc2c(c1)Cc1cc(N=C3C=CC(=O)O3)ccc1-2  growth inhibition            31
 9  O=C(O)c1ccccc1/C=N/N=C1c2ccccc2-c2ccccc21  growth inhibition            -1
10             CCCCN(CCCC)C(=O)/C=C/c1ccccc1  growth inhibition            -5
